system: Aulacophora; test: Insecticidal activity against Aulacophora femoralis (cucurbit leaf beetle) at 500 ppm; format: functional
Measurement name: Activity
Hi, when you answer, please include the unit after the number. Thanks!

Data request, read-out Activity, for `CCCN1CCN/C1=N\[N+](=O)[O-]`
0%

Dear colleague, I am looking for the recorded Activity of the following compound: `O=[N+]([O-])/N=C1\NCCN1CCCCl`
100%

Entry under review: `O=[N+]([O-])/N=C1\NCCN1CCC(F)(F)F` . Reported Activity?
100%

Which Activity value belongs to `O=[N+]([O-])/N=C1\NCCN1CCCF` ?
100%

Look up Activity: `O=[N+]([O-])/N=C1\NCCN1Cc1ccc(Cl)nc1`
100%

Which Activity reading was recorded for the compound `O=[N+]([O-])/N=C1\NCCN1CCC(F)=C(F)F` ?
0%

Field request: Activity | item: `O=[N+]([O-])/N=C1\NCCN1CCF`
0%

----------
system: Myzus persicae; test: Insecticidal activity against Myzus persicae (green peach aphid) at 20 ppm; assay type: functional
Assignment: determine reported Activity for the given compounds.

Any idea what Activity was measured for `O=[N+]([O-])/N=C1\NCCN1CCCF` ?
60%

Recorded Activity of `O=[N+]([O-])/N=C1\NCCN1CCCCF` , please.
0%

For the compound shown here, `O=[N+]([O-])/N=C1\NCCN1Cc1ccc(Cl)nc1` , give the reported Activity.
100%

# Activity lookup, item `O=[N+]([O-])/N=C1\N(CCCF)CCN1Cc1ccc(Cl)nc1`
100%

----------
tested on: Aulacophora; assay: Insecticidal activity against Aulacophora femoralis (cucurbit leaf beetle) at 20 ppm; assay type: functional
Answer each item with its documented Activity.
Answer by giving the amount and then stating its unit.

# lookup: Activity of `O=[N+]([O-])/N=C1\NCCN1CCCF`
0%

Query (compound): `O=[N+]([O-])/N=C1\NCCN1Cc1ccc(Cl)nc1` ; field requested: Activity
100%

Tell me the measured Activity of `O=[N+]([O-])/N=C1\NCCN1CCCCl` , please.
50%

GET /values?readout=Activity&item= `O=[N+]([O-])/N=C1\N(CCCF)CCN1Cc1ccc(Cl)nc1`
100%

----------
Give log(1/BC) for every item shown.
test system: Periplaneta americana; assay: Neuroblocking potency in Periplaneta americana (American cockroach) central nerve cord; format: functional
Give the figure by itself; no unit, no explanation.

Value lookup for log(1/BC); key = `O=[N+]([O-])/C=C1\NCCN1Cc1ccc(Cl)nc1`
5.02

State the recorded log(1/BC) for this entry: O=[N+]([O-])Nc1nccn1Cc1ccc(Cl)nc1 [DEHYDROIMIDACLOPRID]
4.31

So what's the measured log(1/BC) for this one? `O=[N+]([O-])/N=c1\ccccn1Cc1ccc(Cl)nc1`
5.09

May I ask what log(1/BC) has been recorded for `CN1CCN(Cc2ccc(Cl)nc2)/C1=N/[N+](=O)[O-]` ?
3.81

Requested field: log(1/BC). Item: `O=[N+]([O-])/N=C1\NCCN1Cc1ccc(Cl)nc1`
5.64

Query: log(1/BC); subject: `O=[N+]([O-])/C=C1\NCCN1Cc1cnc(Cl)s1`
5.73

Given `O=[N+]([O-])/N=C1\NCCCN1Cc1ccc(Cl)nc1` , state its recorded log(1/BC).
5.35

Entry under review: `O=[N+]([O-])/C=C1\CCCN1Cc1ccc(Cl)nc1` . Reported log(1/BC)?
6.43

Entry `O=[N+]([O-])/C=C1\SCCN1Cc1ccc(Cl)nc1` : reported log(1/BC) = ?
6.19

Which log(1/BC) value is on record for `O=[N+]([O-])/N=c1\sccn1Cc1ccc(Cl)nc1` ?
5.68

Name the reported log(1/BC) value associated with the molecule `O=[N+]([O-])/N=c1\[nH]ccn1Cc1cnc(Cl)s1`
4.61

Give the measured log(1/BC) of `O=[N+]([O-])/C=C1\CCCN1Cc1cnc(Cl)s1` .
6

Tell me the measured log(1/BC) of `O=[N+]([O-])/N=c1\ccccn1Cc1cnc(Cl)s1` , please.
5.75

Requested field: log(1/BC). Item: `O=[N+]([O-])/N=C1\SCCN1Cc1cnc(Cl)s1`
6.31

Value lookup for log(1/BC); key = `O=[N+]([O-])/N=C1\NCCN1Cc1cnc(Cl)s1`
5.97

// returns reported log(1/BC) for input `CN1CCN(Cc2ccc(Cl)nc2)/C1=C/[N+](=O)[O-]`
3.84

Name the recorded log(1/BC) for `O=[N+]([O-])/N=c1\sccn1Cc1cnc(Cl)s1` .
5.79

Data provenance: ChEMBL document CHEMBL3045288
